tested on: NCI-H1048; test: cells; type: functional, cell-based; conditions: Homo sapiens;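 note: growth inhibition of human NCI-H1048 cells, read out with a cell viability assay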
Description: SANGER: Inhibition of human NCI-H1048 cell growth in a cell viability assay.
pIC50: −log10 of the molar value.

compound	pIC50
CN(C)C/C=C/C(=O)Nc1cc2c(Nc3ccc(F)c(Cl)c3)ncnc2cc1O[C@H]1CCOC1	< 6.30
O=C1N=C(NCc2cccs2)S/C1=C\c1ccc2ncccc2c1	< 5.30
CC(=O)O[C@@]12CO[C@@H]1C[C@H](O)[C@@]1(C)C(=O)[C@H](O)C3=C(C)[C@@H](OC(=O)[C@H](O)[C@@H](NC(=O)OC(C)(C)C)c4ccccc4)C[C@@](O)([C@@H](OC(=O)c4ccccc4)[C@H]21)C3(C)C	8.72
O=C(NOCC1CC1)c1ccc(F)c(F)c1Nc1ccc(I)cc1Cl	< 5.00
O=c1cc(-c2cccc3c2Sc2ccccc2S3)oc(N2CCOCC2)c1	< 5.00
Cc1cc([C@@H](C)Nc2ccccc2C(=O)O)c2nc(N3CCOCC3)cc(=O)n2c1	5.91
COc1cc(F)c(F)c(Nc2ccc(I)cc2F)c1NS(=O)(=O)C1(CC(O)CO)CC1 (stereo not drawn)	< 5.30
COc1ccc(C2=N[C@@H](c3ccc(Cl)cc3)[C@@H](c3ccc(Cl)cc3)N2C(=O)N2CCNC(=O)C2)c(OC(C)C)c1	< 5.10

Cited source: ChEMBL document CHEMBL1201861
